Collected set of IC50 measured with PIK3CB (Human) (UniProt P42338) across studies.

>  <molecule>
Nc1nc2cc(-c3ccc4ncc(C(=O)N5CC(N6CCC(F)(F)C6)C5)n4c3)ccc2o1

>  <IC50>
> 10 µM

$$$$
>  <molecule>
Cc1cc(-c2ccc3nc(N)oc3c2)cn2c(CN3CCN(C)CC3)nnc12

>  <IC50>
> 10 µM

$$$$
>  <molecule>
CN(C)[C@H]1CCN(c2cnc3ccc(-c4ccc5oc(N)nc5c4)cc3n2)C1

>  <IC50>
< 1 µM

$$$$
>  <molecule>
C[C@H](Nc1nc(N)ncc1C#N)c1cc2cccc(-c3ccnc(N)c3)c2c(=O)n1-c1ccccc1

>  <IC50>
1 to 10 µM

$$$$
>  <molecule>
Cc1nc2c(-c3nnc[nH]3)cc(-c3ccnc(N)c3)cc2n1-c1ccnc2c(F)ccc(F)c12

>  <IC50>
0.01 µM

$$$$
>  <molecule>
Nc1nc2cc(-c3ccc4ncc(C(=O)NC5CCOCC5)n4c3)ccc2o1

>  <IC50>
< 10 µM

$$$$
>  <molecule>
Cc1nc2c(-c3nnc[nH]3)cc(-c3ccnc(C#N)c3)cc2n1-c1ccnc2c(F)ccc(Cl)c12 (single isomer, unassigned)

>  <IC50>
0.16 µM

$$$$
>  <molecule>
CC(=O)Nc1nc2cc(-c3ccc4oc(N)nc4c3)ccc2o1

>  <IC50>
> 10 µM

$$$$
>  <molecule>
Nc1nc2cc(-c3ccc4ncc(N5CCS(=O)(=O)CC5)nc4c3)ccc2o1

>  <IC50>
> 10 µM

$$$$
>  <molecule>
CC(=O)N1CCN(C(=O)c2cnc3ccc(-c4ccc5oc(N)nc5c4)cn23)CC1

>  <IC50>
> 10 µM

$$$$
>  <molecule>
Cc1cc(-c2ccc3oc(N)nc3c2)cc2c(C(=O)N3CCCC3)cnn12

>  <IC50>
< 10 µM

$$$$
>  <molecule>
C[C@H](Nc1nc(N)ncc1C#N)c1cc2cccc(O)c2c(=O)n1-c1ccccc1

>  <IC50>
1 to 10 µM

$$$$
>  <molecule>
CS(=O)(=O)Nc1nc2cc(-c3ccc4ncc(C(=O)N5CCOCC5)n4c3)ccc2o1

>  <IC50>
> 10 µM

$$$$
>  <molecule>
Nc1nc2cc(-c3ccc4ncc(C(=O)N5CCC(N)CC5)n4c3)ccc2o1

>  <IC50>
< 1 µM

$$$$
>  <molecule>
Cc1nnc(-c2cc(-c3ccnc(N)c3F)cc3c2nc(C)n3-c2ccnc3c(F)ccc(F)c23)[nH]1

>  <IC50>
0.031 µM

$$$$
>  <molecule>
NCC(=O)N1CCN(c2cnc3ccc(-c4ccc5oc(N)nc5c4)nc3c2)CC1

>  <IC50>
< 1 µM

$$$$
>  <molecule>
CC(C)Oc1cc(-c2cccc3nc([C@H](C)NC(=O)c4c(N)nn5cccnc45)n(-c4ccccc4)c(=O)c23)ccn1

>  <IC50>
1 to 10 µM

$$$$
>  <molecule>
Cc1nnc(-c2cc(-c3ccncc3)cc3c2nc(C)n3-c2ccnc3c(Cl)cccc23)[nH]1

>  <IC50>
0.022 µM

$$$$
